These measurements were taken from patent US12507703B2.

System: lipase
Method summary: Lipase/lipolysis assay (EnzChek Lipase Substrate, quenched BODIPY-fatty acid conjugate) on stored human milk; note: test concentration or dose not given here
Observation type: Lipase (RFU)
Answers without a unit are incomplete; give the number and then its unit.

Examples from the recorded data:
[
  {
    "Compound": "C[C@@H]1O[C@@H](OC[C@H]2O[C@@H](Oc3c(-c4ccc(O)cc4)oc4cc(O)cc(O)c4c3=O)[C@H](O)[C@@H](O)[C@@H]2O)[C@H](O)[C@H](O)[C@H]1O",
    "Lipase (RFU)": "810.1075 RFU"
  },
  {
    "Compound": "CC1(C)CCC[C@]2(C)[C@H]3CC(=O)O[C@]3(C)CC[C@@H]12 [Sclareolide]",
    "Lipase (RFU)": "845.6458 RFU"
  },
  {
    "Compound": "COc1cc(CCN)ccc1O.Cl [3-Methoxytyramine (hydrochloride)]",
    "Lipase (RFU)": "963.841 RFU"
  }
]

Consider the record given below.
I looked up `C[C@H]1CCCC(=O)CCC/C=C/c2cc(O)cc(O)c2C(=O)O1` and its Lipase (RFU) for lipase was 758.7174 RFU

---

System: lipase
Method summary: Lipase/lipolysis assay (EnzChek Lipase Substrate, quenched BODIPY-fatty acid conjugate) on stored human milk; note: test concentration or dose not given here
Binary classification by Lipase (RFU), with 1000 RFU as an inclusive lower bound for Satisfied; all other cases are Not satisfied.

Worked cases, answers included:
[
  {
    "Molecule": "Nc1ncnc(N[C@@H]2O[C@H](CO)[C@@H](O)[C@H]2O)c1[N+](=O)[O-] [Clitocine]",
    "Label": "Satisfied"
  },
  {
    "Molecule": "COc1cc(C(=O)O)cc(OC)c1OC [3,4,5-Trimethoxybenzoic acid]",
    "Label": "Satisfied"
  },
  {
    "Molecule": "c1cncc(C2=NCCC2)c1 [Myosmine]",
    "Label": "Not satisfied"
  },
  {
    "Molecule": "N[C@@H](Cc1ccc(O)c(I)c1)C(=O)O [H-Tyr(3-I)-OH]",
    "Label": "Not satisfied"
  },
  {
    "Molecule": "CCC(C)N (stereo not drawn) [Sec-Butylamine]",
    "Label": "Not satisfied"
  }
]

Is it the case that O=C(/C=C/c1ccc(O)c(O)c1)O[C@@H]1CC(O)(C(=O)O)C[C@@H](OC(=O)/C=C/c2ccc(O)c(O)c2)C1O (stereo partly drawn) [Isochlorogenic acid A] has Lipase (RFU) reaching or exceeding 1000 RFU? Not satisfied

Is it the case that CC1(C)CC[C@]2(C(=O)O)CC[C@]3(C)C(=CC[C@@H]4[C@@]5(C)CC[C@@H](O)C(C)(C)[C@@H]5CC[C@]43C)[C@@H]2C1 [3-Epioleanolic acid] has Lipase (RFU) reaching or exceeding 1000 RFU? Satisfied

Is it the case that CC(=O)c1c(C)c([N+](=O)[O-])c(C(C)(C)C)c([N+](=O)[O-])c1C [Musk ketone] has Lipase (RFU) reaching or exceeding 1000 RFU? Not satisfied

Is it the case that CN1[C@@H]2CC[C@H]1CC(=O)C2 [Tropinone] has Lipase (RFU) reaching or exceeding 1000 RFU? Not satisfied

Is it the case that O=C([O-])C(O)Cc1ccc(O)c(O)c1.[Na+] (stereo not drawn) [Danshensu (sodium salt)] has Lipase (RFU) reaching or exceeding 1000 RFU? Not satisfied

Is it the case that COC1=C(OC)C(=O)C(C/C=C(\C)CC/C=C(\C)CC/C=C(\C)CC/C=C(\C)CC/C=C(\C)CC/C=C(\C)CC/C=C(\C)CC/C=C(\C)CCC=C(C)C)=C(C)C1=O [Coenzyme Q9] has Lipase (RFU) reaching or exceeding 1000 RFU? Satisfied

---

Test system: lipase
Method summary: Lipase/lipolysis assay (EnzChek Lipase Substrate, quenched BODIPY-fatty acid conjugate) on stored human milk; note: test concentration or dose not given here
Binary classification by Lipase (RFU), with 1000 RFU as an inclusive lower bound for condition met; all other cases are condition not met.

[
  {
    "Compound": "C[C@H]1[C@H](C)CC[C@]2(C(=O)O)CC[C@]3(C)C(=CC[C@@H]4[C@@]5(C)CC[C@H](O)C(C)(C)[C@@H]5CC[C@]43C)[C@H]12 [3-Epiursolic Acid]",
    "Target": "lipase",
    "Label": "condition not met"
  },
  {
    "Compound": "COc1cc(O[C@@H]2O[C@H](CO)[C@@H](O)[C@H](O)[C@H]2O)c2c(O)c(C(C)=O)c(C)cc2c1 [Torachrysone-8-O-b-D-glucoside]",
    "Target": "lipase",
    "Label": "condition met"
  }
]

Is it the case that CC(C)=CCC[C@](C)(O)[C@H]1CC[C@]2(C)[C@@H]1[C@H](O)C[C@@H]1[C@@]3(C)CC[C@H](O)C(C)(C)[C@@H]3[C@@H](O[C@@H]3O[C@H](CO)[C@@H](O)[C@H](O)[C@H]3O[C@@H]3OC[C@@H](O)[C@H](O)[C@H]3O)C[C@]12C [Notoginsenoside R2] has Lipase (RFU) reaching or exceeding 1000 RFU? condition not met

Is it the case that CC(C)(O)[C@H]1Cc2cc3ccc(=O)oc3cc2O1 [Nodakenetin] has Lipase (RFU) reaching or exceeding 1000 RFU? condition not met

Is it the case that COc1cc2oc(=O)ccc2c(OC)c1O [Fraxinol] has Lipase (RFU) reaching or exceeding 1000 RFU? condition not met

Is it the case that CC(=O)[C@@]1(O)CC[C@H]2[C@@H]3CCC4=CC(=O)CC[C@]4(C)[C@H]3CC[C@@]21C [17α-Hydroxyprogesterone] has Lipase (RFU) reaching or exceeding 1000 RFU? condition not met

Is it the case that COc1cc(CC(=O)C(=O)O)ccc1O [Vanilpyruvic acid] has Lipase (RFU) reaching or exceeding 1000 RFU? condition met

Is it the case that Nc1c(O)cccc1C(=O)CC(N)C(=O)O (stereo not shown) [Compound 3-Hydroxykynurenine] has Lipase (RFU) reaching or exceeding 1000 RFU? condition met

Is it the case that C[C@]12CCC(=O)C=C1CC[C@@H]1[C@@H]2C(=O)C[C@]2(C)C(=O)CC[C@@H]12 [Adrenosterone] has Lipase (RFU) reaching or exceeding 1000 RFU? condition not met

Is it the case that CC[C@H]1OC(=O)C[C@@H](O)[C@H](C)[C@@H](O[C@@H]2O[C@H](C)[C@@H](O[C@H]3C[C@@](C)(O)[C@@H](O)[C@H](C)O3)[C@H](N(C)C)[C@H]2O)[C@@H](CC=O)C[C@@H](C)C(=O)/C=C/C(C)=C/[C@@H]1CO[C@@H]1O[C@H](C)[C@@H](O)[C@@H](OC)[C@H]1OC [Tylosin (phosphate)] has Lipase (RFU) reaching or exceeding 1000 RFU? condition met

Is it the case that N[C@H]1CCOC1=O [L-Homoserine Lactone] has Lipase (RFU) reaching or exceeding 1000 RFU? condition met

Is it the case that CC1(C)[C@@H](O[C@H]2O[C@H](C(=O)O)[C@@H](O)[C@H](O)[C@H]2O[C@@H]2O[C@H](C(=O)O)[C@@H](O)[C@H](O)[C@H]2O)CC[C@]2(C)[C@H]3C(=O)C=C4[C@@H]5C[C@@](C)(C(=O)O)CC[C@]5(C)CC[C@@]4(C)[C@]3(C)CC[C@@H]12 [Ammonium glycyrrhizinate] has Lipase (RFU) reaching or exceeding 1000 RFU? condition not met

Is it the case that O=CCCO [Reuterin] has Lipase (RFU) reaching or exceeding 1000 RFU? condition met

Is it the case that O=C1CC(C(=O)O)c2c1oc(=O)c1cc(O)c(O)c(O)c21 (stereo not shown) [Brevifolincarboxylic acid] has Lipase (RFU) reaching or exceeding 1000 RFU? condition not met

Is it the case that CC1(C)S[C@@H]2[C@H](NC(=O)[C@H](N)c3ccc(O)cc3)C(=O)N2[C@H]1C(=O)[O-].[Na+] [Amoxicillin (sodium)] has Lipase (RFU) reaching or exceeding 1000 RFU? condition met

Is it the case that C[C@@H]1O[C@@H](O[C@H]2C[C@@H](O)[C@]3(CO)[C@H]4[C@H](O)C[C@]5(C)[C@@H](C6=CC(=O)OC6)CC[C@]5(O)[C@@H]4CC[C@]3(O)C2)[C@H](O)[C@H](O)[C@H]1O.O.O.O.O.O.O.O.O [Ouabain (Octahydrate)] has Lipase (RFU) reaching or exceeding 1000 RFU? condition not met

Is it the case that C[C@H]1[C@H](C)CC[C@]2(C)CC[C@]3(C)C(=CC[C@@H]4[C@@]5(C)CC[C@@H](O)[C@](C)(C(=O)O)[C@@H]5CC[C@]43C)[C@H]12 [β-Boswellic acid] has Lipase (RFU) reaching or exceeding 1000 RFU? condition not met

---

Test system: lipase
Method summary: Lipase/lipolysis assay (EnzChek Lipase Substrate, quenched BODIPY-fatty acid conjugate) on stored human milk; note: test concentration or dose not given here
Where a SMILES comes first, the peptide text is derived from it.
Field: label. Allowed values: 1 (yes) (Lipase (RFU) < 900 RFU) or 0 (no) (Lipase (RFU) >= 900 RFU).

Worked cases, answers included:
[
  {
    "Molecule": "NCC(=O)N1CCC[C@H]1C(=O)O [H-Gly-Pro-OH] (H-Gly-Pro-OH)",
    "Target": "lipase",
    "Label": "0 (no)"
  },
  {
    "Molecule": "CC1(C)CC[C@]2(C(=O)O[C@@H]3O[C@H](CO)[C@@H](O)[C@H](O)[C@H]3O)CC[C@]3(C)C(=CC[C@@H]4[C@@]5(C)CC[C@H](O[C@@H]6O[C@H](C(=O)O)[C@@H](O[C@@H]7O[C@@H](CO)[C@H](O)[C@H]7O)[C@H](O)[C@H]6O)C(C)(C)[C@@H]5CC[C@]43C)[C@@H]2C1 [Araloside A]",
    "Target": "lipase",
    "Label": "0 (no)"
  },
  {
    "Molecule": "C=CCc1ccc(O)c(-c2cc(CC=C)ccc2O)c1 [Magnolol]",
    "Target": "lipase",
    "Label": "0 (no)"
  }
]

Does the reported Lipase (RFU) of OC[C@H]1O[C@H](OC[C@H]2O[C@H](O[C@]3(CO)O[C@H](CO)[C@@H](O)[C@@H]3O)[C@H](O)[C@@H](O)[C@@H]2O)[C@H](O)[C@@H](O)[C@H]1O [D-Raffinose] stay below 900 RFU? 0 (no)

Does the reported Lipase (RFU) of CCCCCC(O)/C=C/C=O (centres unmarked) [Compound 4-Hydroxynonenal, 4-Hydroxynonenal] stay below 900 RFU? 1 (yes)

Does the reported Lipase (RFU) of O=C(O)CCCCCCCCCCCO [12-Hydroxydodecanoic acid] stay below 900 RFU? 1 (yes)

Does the reported Lipase (RFU) of O=C(O)CC(O)C(=O)O (racemic) [D,L-Malic Acid] stay below 900 RFU? 1 (yes)
